Test system: Aβtotal
Experiment: Screening for γ-secretase-modulating activity in SKNBE2 cells carrying APP 695 wild type: Aβtotal in cell supernatant (Alphalisa)
Type: cell-based
Conditions: Homo sapiens, overnight incubation
IC50 listing for selected molecules.

In [3]: df
Out[3]:
                                   molecule  experimental_value
0  COc1cc(Nc2nc3n(n2)CCCC3c2cc(C(F)(F)F)ccc2C)ccc1-c1ccnc(C)c1 (stereo not shown)             7.08 µM

Given the molecule COc1cc(Nc2nc3n(n2)C(c2ccccc2C(F)(F)F)CCC3)ccc1-c1ccnc(C)c1 (stereo not shown) , what is its reported IC50?
≥ 10 µM

Next: COc1cc(Nc2nc3n(n2)CCN(C(C)=O)C3c2ccccc2C(F)(F)F)ccc1-n1cnc(C)c1 (stereo not shown)
> 10 µM

Next: COc1cc(Nc2nc3n(n2)CCCC3c2cccc(N(C)C)c2)ccc1-c1ccnc(C)c1 (stereo not shown)
> 10 µM

Next: COc1cc(Nc2nc3n(n2)CCCC3c2ccc(F)cc2C)ccc1-n1cnc(C)c1 (stereo not shown)
9.33 µM

Next: Cc1cc(-c2ccc(Nc3nc4n(n3)CCCC4c3ccccc3Cl)cc2)ccn1 (stereo not shown)
> 10 µM

Each recorded value in this set is attributed to patent US9145399B2.
